Target: rat GluN1/GluN2A (Rattus norvegicus, UniProt P35439+Q00959)
Construct: expressed in transfected cells; host or cells: Xenopus laevis oocytes (cRNA injection, GluN1/GluN2 ratio 1:2)
Sequence (Q00959 23-1464, other chains not shown): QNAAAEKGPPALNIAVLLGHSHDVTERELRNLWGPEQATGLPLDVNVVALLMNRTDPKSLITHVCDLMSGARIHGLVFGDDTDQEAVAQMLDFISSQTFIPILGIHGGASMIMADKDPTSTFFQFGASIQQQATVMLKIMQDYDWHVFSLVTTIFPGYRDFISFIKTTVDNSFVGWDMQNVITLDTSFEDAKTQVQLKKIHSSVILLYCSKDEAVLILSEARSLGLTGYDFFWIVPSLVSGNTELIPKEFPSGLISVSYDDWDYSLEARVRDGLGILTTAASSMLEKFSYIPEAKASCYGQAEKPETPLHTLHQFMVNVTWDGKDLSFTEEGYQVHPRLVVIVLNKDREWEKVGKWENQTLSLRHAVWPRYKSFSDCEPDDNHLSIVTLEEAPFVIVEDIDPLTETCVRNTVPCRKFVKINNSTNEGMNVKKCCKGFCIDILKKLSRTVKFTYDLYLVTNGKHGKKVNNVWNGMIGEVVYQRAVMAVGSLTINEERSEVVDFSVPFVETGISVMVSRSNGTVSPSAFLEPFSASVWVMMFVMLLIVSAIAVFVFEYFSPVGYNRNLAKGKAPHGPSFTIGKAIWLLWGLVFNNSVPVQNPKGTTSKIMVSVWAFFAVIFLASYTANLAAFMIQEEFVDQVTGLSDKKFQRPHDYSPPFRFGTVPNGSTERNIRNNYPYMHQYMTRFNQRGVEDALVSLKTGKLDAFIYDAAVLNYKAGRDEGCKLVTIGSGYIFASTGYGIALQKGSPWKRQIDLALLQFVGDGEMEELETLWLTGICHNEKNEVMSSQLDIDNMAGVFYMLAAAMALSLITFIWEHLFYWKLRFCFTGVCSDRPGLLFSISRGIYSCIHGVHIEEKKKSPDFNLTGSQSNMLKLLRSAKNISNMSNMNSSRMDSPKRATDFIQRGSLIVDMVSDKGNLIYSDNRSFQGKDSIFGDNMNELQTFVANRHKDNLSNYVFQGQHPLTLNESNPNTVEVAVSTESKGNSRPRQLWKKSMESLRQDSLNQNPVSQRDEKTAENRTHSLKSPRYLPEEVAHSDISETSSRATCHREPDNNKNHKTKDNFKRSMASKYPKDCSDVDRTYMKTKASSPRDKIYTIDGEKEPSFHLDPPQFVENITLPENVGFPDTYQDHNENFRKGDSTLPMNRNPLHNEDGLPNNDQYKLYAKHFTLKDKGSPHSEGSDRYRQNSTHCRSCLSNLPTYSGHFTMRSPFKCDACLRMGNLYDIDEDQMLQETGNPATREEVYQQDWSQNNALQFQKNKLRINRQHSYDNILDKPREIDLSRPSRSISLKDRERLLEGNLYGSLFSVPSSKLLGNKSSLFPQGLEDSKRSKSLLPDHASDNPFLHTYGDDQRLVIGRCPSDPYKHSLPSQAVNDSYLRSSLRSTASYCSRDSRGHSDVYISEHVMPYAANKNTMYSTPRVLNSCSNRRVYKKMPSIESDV
Assay: Two-electrode voltage-clamp recording in Xenopus laevis oocytes expressing recombinant rat GluN1/GluN2A
Format: cell-based
Conditions: 30 μM test compound; current ratio, oocytes; read-out: I30 μM/Icontrol (mean ± SEM, %) GluN2A
PARAMETER: remaining activity at 30 µM (%)

A = O=C(O)CC(F)(F)C(=O)N1N=C(c2c(-c3ccc(Cl)cc3)c3cccnc3[nH]c2=O)CC1c1ccc(Cl)cc1 (stereo not drawn) [Compound 88]
B = Cc1cc(-c2ccc(Cl)cc2)c(C2=NN(C(=O)C(F)(F)CC(=O)O)C(c3ccc(Cl)cc3)C2)c(=O)[nH]1 (stereo not drawn) [Compound 55]
Exam item: Could you tell me which of A and B has the lower remaining activity at 30 µM reading? Mark your answer with the label of the selected entry.
Marked response: A
